# Measurement target: Glutamate receptor ionotropic, AMPA (Rattus norvegicus, UniProt P19490+P19491+P19492+P19493)
# Experiment summary: Binding affinity towards AMPA receptor to rat cortical membrane using [3H]AMPA as radioligand
Result type: IC50 (µM)
Give bare numbers, in µM.

Give its IC50 value. Item: CN1Cc2c(S(=O)(=O)N(C)C)cc3c(N=O)c(O)[nH]c3c2C1
0.7
